Test system: Saccharomyces cerevisiae
Experiment: transcriptional activation domain activity (GFP:mCherry ratio, weighted mean of sorted bins, harmonized to initial dataset scale) (arbitrary fluorescence ratio units); higher = stronger transcriptional activation
Details: beta-estradiol 1 µM; induction time 4 h
Recorded endpoint: transcriptional activation domain activity
Returns: the value as a bare number; no unit string appended.

- Sequence content: "VMLSFFICRPILRLLHVFHISSPIYLYLPFVPLHLLIYPSFLIDVGLLSMVLA"
  Obs value: 65200
- Sequence content: "AAAVAVAREHVQKEVVATVTVAKEHVQKEEVVAAVAVAREHAQKEVVATVAVA"
  Obs value: 56000
- Sequence content: "FNEFYPSGWPPSYFIVILRMLFLVCGLFFLWSFFFVVFFFCGLLSLLFFILVV"
  Obs value: 28500
- Sequence content: "PLSLLIYFLEWIGPLNLWIRCLCKTSLIEFYFRLLVILLMPFLFVFWHIIGLG"
  Obs value: 40100

Determine its reported transcriptional activation domain activity: RYEAQGGGYKDTGDNKNKAKKGTPERKTKEDGKEEEEKGDKKEEAKKEEGKKE
22800

====

Test system: Saccharomyces cerevisiae
Experiment: transcriptional activation domain activity (GFP:mCherry ratio, weighted mean of sorted bins, harmonized to initial dataset scale) (arbitrary fluorescence ratio units); higher = stronger transcriptional activation
Details: beta-estradiol 1 µM; induction time 4 h
Each item that follows carries a reported transcriptional activation domain activity.
# respond with the number and nothing more

Give the reported value of transcriptional activation domain activity for this record: KILLNHNYFYFRMLCHHQTCNIYNLYHQIFLIFLQIIVSILLSLRIIALYLGN
66400

Query transcriptional activation domain activity for RKPEAAAEKTAEAPEATGGEGTRRRASGRGRGRGRNGRGGRSGRAEGEEKKDE
31500

Please give the documented transcriptional activation domain activity of VDNLLLPLAIHHRFLSYCLYIIGFVYFVYSLEKGHYKFQFTQFCITHMTLFLV
50900

Give transcriptional activation domain activity for the following sequence: MVVFLYLVIYHWSKVNRVSFRCAAFCCIAHLIENVFFVIMVKVKGPSKFCAGI
76900

State, in one line, measured transcriptional activation domain activity of IDVCLRERDANDYSRQVLGHYWENGIPLSSNRIIHDLLVILRNVIARVITAAK
42300

Give the value of transcriptional activation domain activity reported for the following: EDEEESSKEETEKQRNKLRELIYEFIAKDVASRVELAKYWLSEEWNCAVGPQT
35300

Output measured transcriptional activation domain activity for this item: CGSQSPALLYPYYQIDTIVPCIRDLESYYKSAGFPTTTLIWPLFLHLMILFVV
75400

For EVMKIMPVQKQTRAGQRTRFKAFVVIGDSDGHVGLGVKCAKEVATAIRGAIIL , write its transcriptional activation domain activity.
55300

Could you please provide reported transcriptional activation domain activity for SFSVILFYFIFLISPGQKAAFVFPWSFFFFLFFFFFFFTFFYFRLFSANFVCV ? Thanks!
45000

====

Test system: Saccharomyces cerevisiae
Assay: transcriptional activation domain activity (GFP:mCherry ratio, weighted mean of sorted bins, harmonized to initial dataset scale) (arbitrary fluorescence ratio units); higher = stronger transcriptional activation
Settings: beta-estradiol 1 µM; induction time 4 h
Recorded transcriptional activation domain activity by entry
Enter a number only.

- Sequence content: "MEWMGGWLVLGGWIYLFCSVMFKLDRLVVFLEVFFFYLLLCVIVLVMGLVVML"
  Assayed system: "Saccharomyces cerevisiae"
  Obs value: 38800
- Sequence content: "LQASREEIRKKVSEDDHGLTRFRRQVVLALDLYIWEPICISLRFLRLVMIFVP"
  Assayed system: "Saccharomyces cerevisiae"
  Obs value: 52400
- Sequence content: "KFQERMMVLKEIKLISLGDVRKITYSRMGYTDWKIVVLGRMWNLRFFVATGWD"
  Assayed system: "Saccharomyces cerevisiae"
  Obs value: 64400
- Sequence content: "KVNTNNDVNENNDLWNSYLQSMDDTTGKNSGNYQQVDNDDNMSLLNLPILEET"
  Assayed system: "Saccharomyces cerevisiae"
  Obs value: 90400
- Sequence content: "MGVYLQKLGWGYRVWRFLFWMGLSLVSFLFFICCFSLSVHTCFFFFWLGRLGW"
  Assayed system: "Saccharomyces cerevisiae"
  Obs value: 27300
- Sequence content: "MEACMSIMMIPMILRNGTVFSFFFRVMLYFTCIVSMAGWLVPGSYWLWFGLVC"
  Assayed system: "Saccharomyces cerevisiae"
  Obs value: 48100
- Sequence content: "MTNRLHIVCHICVFYGYILMFQAITSYHYFILLCILILILHLLTFILVYLYKD"
  Assayed system: "Saccharomyces cerevisiae"
  Obs value: 38400
- Sequence content: "VCVRVDWPWLSFPTALVLLTVVLFVTVLVIARRSQVSEGQPIWKSSSIVAFFH"
  Assayed system: "Saccharomyces cerevisiae"
  Obs value: 41100

Tell me transcriptional activation domain activity reported for LISRLFAVKEVTKIQDINLEFDIACLWPLVPLSSWVMDYIVTVMQAWSLLFNR
59400

Fill in reported transcriptional activation domain activity for this entry: KKGRRKENGEGGEEKGKGAGGRGEGEEAGRRSRIKGVGGKRRGAGRRRGRREG
17100

Let me know recorded transcriptional activation domain activity for SEDERPRGGLKGRKGKKRVEREETSGGSDESSDEEGKRGKAKAGGKREVRTRS , thanks.
31900

Please report transcriptional activation domain activity for the following sequence: IQAEGLYDCRYSSYGIELLRYAFYFGMFLFLLRSGWYITSSVFLGTLWHQLSF
21100

Recall and state the measured transcriptional activation domain activity for CFALVVAFGISRNTLLVKAFRCIQYCLSKMSYCLATRLQCCPEYSCYIHQPGD .
75300

Complete the entry with transcriptional activation domain activity for KIISAFGWNADKHLGFALLQLCMDGNRIRSPLAAMMLLMYYVTLMTHCPQILT
63700

Note transcriptional activation domain activity for the sequence shown: ILLGLLVLVLLYANVVLIIYHEPTFRRPLDMAFIHAPIRLFFILPFGVLFWYS
63100
